Give SK-MEL-28 cell based ATPase inhibition % at 10 nM for every item shown.
- subject-of-test: T1, human CD39 (full length, on cells) (human, UniProt P49961 1-510)
- T1 sequence: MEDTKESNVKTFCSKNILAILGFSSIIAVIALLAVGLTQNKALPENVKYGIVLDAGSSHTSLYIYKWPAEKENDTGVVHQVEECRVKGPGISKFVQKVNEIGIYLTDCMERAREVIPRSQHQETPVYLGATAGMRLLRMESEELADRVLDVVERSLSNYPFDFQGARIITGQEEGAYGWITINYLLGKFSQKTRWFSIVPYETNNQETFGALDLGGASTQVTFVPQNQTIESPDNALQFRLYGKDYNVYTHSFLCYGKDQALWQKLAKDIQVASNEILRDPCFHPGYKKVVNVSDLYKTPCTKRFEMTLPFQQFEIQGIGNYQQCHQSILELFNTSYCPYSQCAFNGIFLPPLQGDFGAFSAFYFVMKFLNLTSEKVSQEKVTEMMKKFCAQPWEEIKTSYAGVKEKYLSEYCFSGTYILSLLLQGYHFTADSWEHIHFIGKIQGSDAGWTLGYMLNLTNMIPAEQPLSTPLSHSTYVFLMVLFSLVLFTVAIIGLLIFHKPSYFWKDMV
- experiment-notes: cell-based or functional assay
Give bare numbers, in %.

>  <binder>
mAb23 (antibody, V domains shown, mouse hybridoma antibody) VH: EVQLQQSGAELLRPGASVKLSCTASGYNLKDTFLHWVKQRPEQGLEWIGRIDPANGNIKYDPKFQGKATLTADTSSNTAYLQLISLTSEDTAVYYCANSPYYYGSGYRIFDVWGAGTTVTVSS VL: QIVLTQSPAIMSASPGEKVTITCSAFSSVNYMHWYQQKPGTSPKLLIYTTSNLASGVPTRFSGSGSGTSYSLTISRMEAEDAATYYCQQRSTYPFTFGSGTKLEIQ

>  <u>
%

>  <number>
75

$$$$

Could you now consider this next binder?
query: I would be grateful if you could share the reported SK-MEL-28 cell based ATPase inhibition % at 10 nM for mAb14 (antibody, V domains shown, mouse hybridoma antibody) VH: EVKLEESGGGLVQPGGSMKLSCVASGFTFSKYWMNWVRQSPEKGLEWVAEIRLKSNKYGTHYAESVKGRFTISRDDSKNNVYLQMNNLRPEDTGIYYCTTQLDLYWFFDVWGAGTTVTVSS VL: DIVMTQSPAILSVTPGDRVSLSCRASQSISDYLHWYQQKSHESPRLLIKYASQSISGIPSRFSGSGSGSNFTLSINSVEPEDVGVYFCQNGHSLPLTFGAGTKLELR .
result: 57
